Recorded values, source patent US20260015341A1.

# ASSAY NAME: Pharmacokinetics in rats
# Format: in vivo, SD rats
# RUN PARAMETERS: rat, ig (intragastric), 3 mg/kg
READOUT NAME: F (%)
Give just the numeric value; % need not be written.

Observe how each entry below is paired with its result.
Record Cc1cc([C@@H](C)Nc2ccc(Cl)nc2C(=O)O)c2nc(-c3ccc(F)cn3)n(C)c(=O)c2c1 [Compound 66] , field F: 89.0

Record Cc1cc([C@@H](C)Nc2ccc(Cl)nc2C(=O)O)c2nc(-c3ccc(F)cc3)n(C)c(=O)c2c1 [Compound 65] , field F: 79.6

Record Cc1cc([C@@H](C)Nc2ccc(Cl)nc2C(=O)O)c2nc(-c3ccccc3)n(C)c(=O)c2c1 [Compound 115] , field F: 80.3

Read the next record carefully.
Record C[C@@H](Nc1ccc(Cl)nc1C(=O)O)c1cc(F)cc2c(=O)n(C)c(-c3ccc(F)cn3)nc12 [Compound 74] , field F: 44.8

* * *

In this section, each of the molecules is paired with its reported AUC.
# ASSAY NAME: Pharmacokinetics in rats
# Format: in vivo, SD rats
# RUN PARAMETERS: male, SD, plasma; rat, iv (tail vein injection), 1 mg/kg

Observe how each entry below is paired with its result.
Record "Cc1cc([C@@H](C)Nc2ccc(Cl)nc2C(=O)O)c2nc(-c3ccc(F)cc3)n(C)c(=O)c2c1" , field AUC: 1 µg·h/mL

Record "Cc1cc([C@@H](C)Nc2ccc(Cl)nc2C(=O)O)c2nc(-c3ccc(F)cn3)n(C)c(=O)c2c1" , field AUC: 1.39 µg·h/mL

Record "C[C@@H](Nc1ccc(Cl)nc1C(=O)O)c1cc(F)cc2c(=O)n(C)c(-c3ccc(F)cn3)nc12" , field AUC: 1.01 µg·h/mL

Read the next record carefully.
Record "Cc1cc([C@@H](C)Nc2ccc(Cl)nc2C(=O)O)c2nc(-c3ccccc3)n(C)c(=O)c2c1" , field AUC: 0.978 µg·h/mL

* * *

# ASSAY NAME: Pharmacokinetics in rats
# Assay type: in vivo, SD rats
# RUN PARAMETERS: male, SD, plasma, po; rat, ig (intragastric), 3 mg/kg
In this section, each of the compounds is paired with its reported half-life.
Give just the numeric value; h need not be written.

Record "Cc1cc([C@@H](C)Nc2ccc(Cl)nc2C(=O)O)c2nc(-c3ccc(F)cc3)n(C)c(=O)c2c1" , field half-life: 1.34

Record "C[C@@H](Nc1ccc(Cl)nc1C(=O)O)c1cc(F)cc2c(=O)n(C)c(-c3ccc(F)cn3)nc12" , field half-life: 2.4

Record "Cc1cc([C@@H](C)Nc2ccc(Cl)nc2C(=O)O)c2nc(-c3ccccc3)n(C)c(=O)c2c1" , field half-life: 3.83

Read the next record carefully.
Record "Cc1cc([C@@H](C)Nc2ccc(Cl)nc2C(=O)O)c2nc(-c3ccc(F)cn3)n(C)c(=O)c2c1" , field half-life: 18

* * *

# ASSAY NAME: Pharmacokinetics in beagle dogs
# Type: in vivo
# RUN PARAMETERS: male, plasma; beagle dog, iv, 1 mg/kg
In this section, each of the molecules is paired with its reported AUC.
Give just the numeric value; ng·h/mL need not be written.

Observe how each entry below is paired with its result.
Record "C[C@@H](Nc1ccc(Cl)nc1C(=O)O)c1cc(F)cc2c(=O)n(C)c(-c3ccc(F)cn3)nc12" , field AUC: 2390

Record "Cc1cc([C@@H](C)Nc2ccc(Cl)nc2C(=O)O)c2nc(-c3ccc(F)cc3)n(C)c(=O)c2c1" , field AUC: 954

Read the next record carefully.
Record "Cc1cc([C@@H](C)Nc2ccc(Cl)nc2C(=O)O)c2nc(-c3ccc(F)cn3)n(C)c(=O)c2c1" , field AUC: 2210
